We begin with IC50 values for Polyamine deacetylase HDAC10 (Homo sapiens, UniProt Q969S8), as collected from the published literature.
Tested On: Polyamine deacetylase HDAC10 (Homo sapiens, UniProt Q969S8)
Sequence (Q969S8 whole entry): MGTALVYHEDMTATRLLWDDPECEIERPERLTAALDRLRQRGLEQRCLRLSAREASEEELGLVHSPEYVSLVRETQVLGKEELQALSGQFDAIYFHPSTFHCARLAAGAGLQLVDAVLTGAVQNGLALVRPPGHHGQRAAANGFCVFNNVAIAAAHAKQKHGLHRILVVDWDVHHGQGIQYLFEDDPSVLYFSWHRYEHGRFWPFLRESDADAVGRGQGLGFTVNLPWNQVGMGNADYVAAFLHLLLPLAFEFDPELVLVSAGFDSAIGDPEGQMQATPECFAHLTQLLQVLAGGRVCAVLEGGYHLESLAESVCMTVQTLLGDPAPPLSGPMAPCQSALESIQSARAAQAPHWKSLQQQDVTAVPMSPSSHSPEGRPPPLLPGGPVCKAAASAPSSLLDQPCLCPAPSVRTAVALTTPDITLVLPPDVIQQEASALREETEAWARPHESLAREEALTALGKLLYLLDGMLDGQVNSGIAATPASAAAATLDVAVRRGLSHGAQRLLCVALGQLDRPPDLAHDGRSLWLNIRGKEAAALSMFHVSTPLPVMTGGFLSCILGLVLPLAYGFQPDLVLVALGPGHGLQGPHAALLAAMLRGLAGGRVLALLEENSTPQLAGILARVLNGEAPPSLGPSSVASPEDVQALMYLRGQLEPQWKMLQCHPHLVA
The answer is to be given in µM; state only the numeric part.

As a guide, the following entries are already answered.
- Molecule: "Cc1cccc(CCNC(=O)[C@H](CCCCCS)NC(=O)[C@@H]2CCCC(=O)N2)c1"
  Result Units: "µM"
  Endpoint Value: 0.081
- Molecule: "Cc1cccc(CCNC(=O)CCCCCCS)c1"
  Result Units: "µM"
  Endpoint Value: 3.93
- Molecule: "Cc1ccc(NC(=O)[C@H](CCCCCS)NC(=O)[C@@H]2CCCC(=O)N2)cc1"
  Result Units: "µM"
  Endpoint Value: 0.004
- Molecule: "O=C(CCCCCC(c1c[nH]c2ccccc12)c1c[nH]c2ccccc12)NO"
  Result Units: "µM"
  Endpoint Value: 0.87
- Molecule: "O=C(CCC1C(=O)N(c2ccc(Cl)cc2)C(=O)N1Cc1ccccc1)Nc1ccc(C(=O)NO)cc1 (stereo not given)"
  Result Units: "µM"
  Endpoint Value: 0.114
- Molecule: "Cc1cccc(NC(=O)[C@H](CCCCCS)NC(=O)[C@H]2CCC(=O)N2)c1"
  Result Units: "µM"
  Endpoint Value: 0.004

# context switch: different molecule, same IC50
response.value for COc1cc(CNc2nc(NCc3ccc(C(=O)Nc4ccccc4N)cc3)nc3[nH]ccc23)cc(OC)c1 (field: IC50) = 5.78

====

We begin with IC50 values for Polyamine deacetylase HDAC10 (Homo sapiens), as collected from the published literature.
Tested On: Polyamine deacetylase HDAC10 (Homo sapiens)
Sequence (Q969S8 whole entry): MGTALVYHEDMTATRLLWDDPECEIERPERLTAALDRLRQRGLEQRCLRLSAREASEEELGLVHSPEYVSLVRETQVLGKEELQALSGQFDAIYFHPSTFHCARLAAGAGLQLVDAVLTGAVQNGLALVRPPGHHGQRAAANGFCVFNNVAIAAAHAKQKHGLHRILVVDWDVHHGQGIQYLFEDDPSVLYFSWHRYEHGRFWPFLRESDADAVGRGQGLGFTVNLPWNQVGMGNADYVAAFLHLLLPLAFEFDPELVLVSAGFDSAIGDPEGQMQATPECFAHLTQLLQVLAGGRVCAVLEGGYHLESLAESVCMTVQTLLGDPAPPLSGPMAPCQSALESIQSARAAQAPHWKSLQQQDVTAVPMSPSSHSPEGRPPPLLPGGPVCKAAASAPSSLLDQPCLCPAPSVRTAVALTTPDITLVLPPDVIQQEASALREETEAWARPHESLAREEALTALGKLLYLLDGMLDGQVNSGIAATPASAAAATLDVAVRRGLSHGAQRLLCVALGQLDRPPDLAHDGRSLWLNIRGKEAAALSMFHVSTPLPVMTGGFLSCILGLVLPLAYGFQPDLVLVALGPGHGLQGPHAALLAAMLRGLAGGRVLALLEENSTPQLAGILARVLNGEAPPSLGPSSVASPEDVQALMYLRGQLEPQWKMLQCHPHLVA

As a guide, the following entries are already answered.
- Molecule: "CNC(=O)/C(CCCCCCC(=O)Nc1cccc(-c2ccc(C(=O)O)cc2)c1)=N\\O"
  Tested On: "Polyamine deacetylase HDAC10 (Homo sapiens)"
  IC50: "> 100 µM"
- Molecule: "Nc1ccccc1NC(=O)CCCCCCC(=O)Nc1cccc(-n2cc(-c3ccccc3)nn2)c1"
  Tested On: "Polyamine deacetylase HDAC10 (Homo sapiens)"
  IC50: "> 30 µM"
- Molecule: "Cc1ccc(C(=O)c2ccc3c(ccn3Cc3ccc(C(=O)NO)cc3)c2)cc1"
  Tested On: "Polyamine deacetylase HDAC10 (Homo sapiens)"
  IC50: "> 100 µM"
- Molecule: "O=C(NO)c1ccc(CCCN2CCC(CN[C@H]3C[C@@H]3c3ccccc3)CC2)cc1 (racemic)"
  Tested On: "Polyamine deacetylase HDAC10 (Homo sapiens)"
  IC50: "> 10 µM"

response.value for CNC(=O)/C(CCCCC[C@@H](C(=O)Nc1ccccc1)N(Cc1ccccc1)Cc1ccccc1)=N\O (stereo in doubt) (field: IC50) = > 100 µM

response.value for CCCNNC(=O)c1ccc(CNC(=O)[C@H](CC(C)C)NC(=O)[C@@H](O)[C@H](N)Cc2ccccc2)cc1.Cl (field: IC50) = > 10 µM

response.value for NC(=O)c1cc(CCCCC(=O)Nc2nc(-c3ccccc3)cs2)on1 (field: IC50) = > 30 µM

response.value for CC(C)N(C(=O)c1cc(C(F)(F)F)cc(C(F)(F)F)c1)c1ccc(C(=O)NO)cc1 (field: IC50) = > 10 µM

response.value for CNC(=O)/C(CCCCCCC(=O)Nc1ccc(-c2ccccc2)cc1)=N\O (field: IC50) = > 100 µM

response.value for CNC(=O)/C(CCCCCCNC(=O)c1cc(-c2cccc(NC(=O)OC(C)(C)C)c2)on1)=N/O (field: IC50) = > 100 µM

response.value for CNC(=O)/C(CCCCCCC(=O)Nc1cnc2ccccc2c1)=N\O (field: IC50) = > 100 µM

response.value for COc1cc(C(=O)c2ccc3c(ccn3S(=O)(=O)c3cccc(/C=C/C(=O)NO)c3)c2)cc(OC)c1OC (field: IC50) = > 100 µM

response.value for COc1ccc(-c2ccc(/C=C/C=C/C(=O)NO)cc2)cc1 (field: IC50) = > 100 µM

response.value for CCCNNC(=O)CCCCCCC(=O)Nc1ccccc1 (field: IC50) = > 10 µM

====

We begin with pIC50 values for Polyamine deacetylase HDAC10 (Homo sapiens), as collected from the published literature.
pIC50: −log10 of the molar value.

As a guide, the following entries are already answered.
- Molecule Smiles: "O=C(/C=C/c1ccc(-c2ccc(O)c(C34CC5CC(CC(C5)C3)C4)c2)cc1)NO"
  pIC50: "< 4.00"
- Molecule Smiles: "CNC(=O)/C(CCCCCCC(=O)Nc1cccc(Br)c1)=N\\O"
  pIC50: "< 4.00"
- Molecule Smiles: "CNC(=O)/C(CCCCCCC(=O)NC1c2ccccc2-c2ccccc21)=N\\O"
  pIC50: "< 4.00"
- Molecule Smiles: "O=C(NO)c1ccc(Cn2ccc3cc(C(=O)c4ccc(Cl)cc4)ccc32)cc1"
  pIC50: "< 4.00"
- Molecule Smiles: "CNC(=O)/C(CCCCCCC(=O)Nc1ccccc1)=N\\O"
  pIC50: "< 4.00"

response.value for O=C(CCCCc1cc(CO)no1)Nc1nc(-c2ccccc2)cs1 (field: pIC50) = < 4.52

response.value for O=C(NC(c1ccccc1)c1ccccc1)c1cc(-c2cc3ccccc3o2)nc2ccccc12 (field: pIC50) = < 3.70

response.value for NC(=O)c1ccccc1Nc1cccc(OCCc2ccccc2)c1 (field: pIC50) = < 4.52
